Measured values drawn from PubChem BioAssay for this set.

Answer each item with its documented composite z-score.
experimental-protocol: small molecules captured by biotinylated probe aFGF2 – biochemical, small-molecule microarray, fluorescence 635/667, stem cell growth factor project, primary screen (AID 1067);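 note: measures binding of biotinylated aFGF2 protein to printed compounds on slides; z-score merges feature fluorescence and signal-to-noise across triplicate slides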
run-conditions: higher = more signal
Give only the figure.

[in] // query composite z-score value for entry COC(=O)[C@@]1(Cc2ccc(F)cc2)[C@H]2c3cc(C(=O)N4CCCC4)n(Cc4ccccn4)c3C[C@H]2CN1C(=O)c1ccccc1
[out] 0.272

[in] Need composite z-score, item COc1ccc([Si](C)(C)[C@H]2[C@H](CC(=O)N3Cc4ccccc4C[C@H]3CO)O[C@@]3(C(=O)N(C)c4ccccc43)[C@@H]2C)cc1
[out] -0.081

[in] Endpoint output: composite z-score of [N-]=[N+]=Nc1ccccc1[C@@H]1OC(c2ccc(OCCCO)cc2)=N[C@]1(CCS(=O)(=O)c1ccccc1)C(=O)NCC(O)CO (some centres undefined) . Value?
[out] -0.0125

[in] Returns the measured composite z-score for the input molecule. Input: [N-]=[N+]=NCc1ccccc1[C@@H]1OC(c2ccc(OCCCO)cc2)=N[C@]1(Cc1ccccc1N=[N+]=[N-])C(=O)O
[out] 0.294

###

Please respond with reported z-score for every item in the list.
experimental-protocol: change in splice reporter luminescence, either direction, cell-based, HEK293, spliceosome inhibition project, primary screen (AID 1101);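 note: HEK293 cells carrying a splicing-competent luciferase reporter gene; test concentration not given here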
run-conditions: HEK293 splicing luciferase reporter, 24 h, higher = more signal, called active from +8 up or from −8 down
Activity calls are given as the source filed them.

[in] If you can, please state the reported z-score value of CCOc1cc(C(O)C2C=CC3C(=O)N(c4ccccc4)C(=O)C3N2Nc2ccccc2F)ccc1O (stereo not drawn) .
[out] 0.101 (inactive)

[in] Any idea what its z-score is? The molecule is CCCCC(O)C1C=CC2C(=O)N(c3ccccc3)C(=O)C2N1Nc1ccc([N+](=O)[O-])cc1 (stereo not drawn)
[out] -0.846 (inactive)

[in] For the molecule shown here, COC(=O)C(CC#Cc1ccc2c(c1)[C@]1(C(=O)N2)[C@H](c2ccccc2OCCO)N2[C@H](c3ccccc3)[C@H](c3ccccc3)OC(=O)[C@H]2[C@@H]1C(=O)N1CCc2cc(OC)c(OC)cc2C1)C(=O)OC , give the reported z-score.
[out] -0.795 (inactive)

[in] # input molecule: C=CCN1Cc2ccccc2[C@H]2OC(c3ccc(OCCCO)cc3)=N[C@@]2(CCS(=O)(=O)c2ccccc2)C1=O ; wanted: its z-score
[out] 0.767 (inactive)

[in] Find the recorded z-score belonging to CN(C)CCCNC(=O)[C@@]1(C)c2ccccc2C(=O)N(Cc2ccc(OC(F)(F)F)cc2)[C@H]1c1ccc(CO)cc1 and report it.
[out] 0.399 (inactive)

[in] # lookup: z-score of CN(C)CCCC[C@@H]1NC(=O)[C@@H]2C[C@H](C(=O)NCCCCCCNC(=O)CS)[C@H](c3ccc(O)cc3)N2C1=O
[out] 1.06 (inactive)

[in] Quick one: z-score of C=C(CCCC)/C(=C/C[C@H](OC(=O)c1ccncc1)c1ccc(OCCO)cc1)c1cnc2ccccc2c1 ?
[out] -0.0197 (inactive)

[in] For the molecule CCCCCC1=C2CNC(Cc3ccccc3)(C(=O)OC)C=C2C(C)C1=O (stereo not drawn) , what z-score is on record?
[out] 73.6 (active)

[in] Item under review: CCOC(=O)C1=C[C@@H](C(C)(C)C)N(S(=O)(=O)c2ccc(C)cc2)[C@H]1c1ccc(C#N)cc1 . Reported z-score?
[out] -0.385 (inactive)

[in] Quick one: z-score of CC(C)c1nc2cc(Br)ccc2c(=O)o1 ?
[out] 1.44 (inactive)

[in] Param item = NC(=O)N1C(=O)C2C(C1=O)C1C=C(CCCO)C2C(c2ccc(CN3CCCC3)cc2)N1Cc1cc2c(cc1Br)OCO2 (stereo not drawn) ; retrieve measured z-score.
[out] 0.343 (inactive)

[in] Requested read-out: z-score. Entry: C=CC[C@@]12N=C(c3ccc(OCCCO)cc3)O[C@@H]1c1ccccc1N(CCC)C2=O
[out] -0.457 (inactive)

[in] Return reported z-score; argument: Cc1ccc(S[C@]2(C(=O)NC(C)C)CC(=O)N(C3CCCCC3)[C@@H]2c2ccc(CO)cc2I)cc1
[out] -0.504 (inactive)

[in] State the recorded z-score for this entry: O=C1[C@H]2C=C(I)[C@H](C[C@@H]2c2ccccc2)[C@@]12CO2
[out] 0.523 (inactive)

[in] For the molecule shown here, CC(C)C(=C=CC[C@H](O)c1ccccc1OCCO)C[C@H](O)c1cc(Cl)cc(Cl)c1O , give the reported z-score.
[out] -0.605 (inactive)

[in] I would be grateful if you could share the reported z-score for O=C1O[C@H](c2ccccc2)[C@H](c2ccccc2)N2[C@H]1[C@@H](C(=O)O)[C@]1(C(=O)Nc3ccc(C#CCCO)cc31)[C@H]2c1ccc(OCCO)cc1 .
[out] -0.155 (inactive)

[in] // z-score lookup, key: C=CCNC(=O)[C@H]1[C@@H]2C(=O)O[C@@H](c3ccccc3)[C@@H](c3ccccc3)N2[C@@H](c2ccccc2OCCO)[C@]12C(=O)N(C(=O)OCCOC)c1ccc(C#Cc3ccc(OC)cc3)cc12
[out] 0.522 (inactive)

[in] Which measured z-score value corresponds to O=C1c2ccccc2[C@@]2(Cc3ccccc3N(Cc3ccccc3)C2=O)[C@H](c2ccc(CO)cc2)N1Cc1ccccc1Cl ?
[out] -1.06 (inactive)

[in] Item CN(C)C(=O)[C@@]1(Cc2ccccc2CN=[N+]=[N-])COC(c2ccc(OCCCO)cc2)=N1 has what recorded z-score?
[out] -0.51 (inactive)

[in] Entry under review: COC(=O)[C@@]1(Cc2ccc(F)cc2)[C@H]2c3cc(C(=O)N(C)C)n(CCc4ccc(O)c(O)c4)c3C[C@H]2CN1C(=O)c1ccccc1 . Reported z-score?
[out] 0.692 (inactive)

[in] What does the record list as z-score for C=CCC(OC(C)=O)[C@@H]1[C@@H](N(Cc2cccc3ccccc23)C(=O)Cc2ccc(OC)cc2)c2cc(OCCCO)ccc2N1C(=O)Cc1ccc2ccccc2c1 (stereo partly drawn) ?
[out] -0.738 (inactive)

[in] Query (molecule): C=CCC(OC(C)=O)[C@@H]1[C@@H](N(Cc2cc3ccccc3o2)C(=O)Cc2ccc(OC)cc2)c2cc(OCCCO)ccc2N1C(=O)c1ccc2ccccc2n1 (stereo partly drawn) ; field requested: z-score
[out] -0.536 (inactive)

[in] Quick check: z-score of COCCOC(=O)N1C(=O)[C@@]2(c3cc(C#CC4(O)CCCCCC4)ccc31)[C@H](c1ccc(O)cc1)N1[C@H](c3ccccc3)[C@H](c3ccccc3)OC(=O)[C@H]1[C@@H]2C(=O)N1CCCCCCC1 ?
[out] -0.803 (inactive)

###

Record form. Attribute: composite z-score. Fill in for each entry.
tested-target: Dickkopf-related protein 1 (Homo sapiens)
experimental-protocol: small molecules binding DKK1 protein – biochemical, small-molecule microarray, 635 nm fluorescence scan, primary screen (AID 1106);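 note: score merges emission near 667 nm with signal to noise over three replicate slides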
run-conditions: higher = more signal
Give the figure by itself; no unit, no explanation.

[in] Please report the recorded composite z-score for O=C(NC1CC1)[C@@H]1c2ccccc2C(=O)N(Cc2cc(C(F)(F)F)cc(C(F)(F)F)c2)[C@H]1c1ccc(CO)cc1 .
[out] -0.835

[in] What does the data say about its composite z-score? Entry: COC(=O)[C@@]1(Cc2ccc(F)cc2)[C@H]2c3cc(C(=O)N(C)C)n(CCc4ccc(O)c(O)c4)c3C[C@H]2CN1C(=O)c1ccccc1
[out] -0.372

[in] composite z-score lookup needed for COc1ccc([Si](C)(C)[C@H]2[C@H](CC(=O)N3Cc4ccccc4C[C@H]3CO)O[C@@]3(C(=O)N(C)c4c(Br)cc(C)cc43)[C@@H]2C)cc1 , thanks.
[out] 0.474

[in] Need composite z-score of COc1ccc(C(=O)Nc2ccc(CN3C(=O)[C@@]4(O[C@@H](CCn5cc(CCO)nn5)[C@H]([Si](C)(C)c5ccc(OC)cc5)[C@H]4C)c4ccccc43)cc2)cc1 , thanks.
[out] 1

[in] Please report the recorded composite z-score for CN(C)C(=O)[C@]1(Cc2ccccc2)N=C(c2ccc(OCCCO)cc2)O[C@@H]1c1ccccc1CN=[N+]=[N-] .
[out] -0.124

[in] Fill blank: measured composite z-score of the molecule CC(C)(C)OC(=O)CC[C@@]1(C(=O)NCCN2CCOCC2)N=C(c2ccc(OCCCO)cc2)O[C@@H]1c1ccccc1CN=[N+]=[N-] is ____.
[out] -0.45

[in] # query: composite z-score of entry CCOC(=O)C[C@H]1[C@H](OC(=O)c2ccccc2-c2ccccc2)[C@@H](NC(=O)c2ccc3ccccc3c2)c2cc(OCCCO)ccc2N1C(=O)Cc1ccc(OC)cc1
[out] 0.225

[in] Look at this molecule and give its reported composite z-score. CCCCC(O)C1C=CC2C(=O)N(c3ccccc3)C(=O)C2N1Nc1ccc(C#N)cc1 (centres undefined)
[out] -0.579

[in] Which composite z-score reading was recorded for the molecule COC(=O)[C@]1(Cc2ccccc2)N=C(c2ccc(OCCCO)cc2)O[C@@H]1c1ccccc1CN=[N+]=[N-] ?
[out] -0.0456

[in] Sample CC(=O)NCCCC[C@@H]1NC(=O)[C@H]2C[C@@H](C(=O)NCCCCCCNC(=O)CS)[C@@H](c3cccc(OCCO)c3)N2C1=O — what was its composite z-score?
[out] 0.363

[in] I would be grateful if you could share the reported composite z-score for COC(=O)[C@H](Cc1ccc(O)cc1)N[C@@H](/C=C/C1CC1)[C@H](O)Cc1ccccc1 .
[out] 0.14

[in] Field request: composite z-score | item: COCCOC(=O)N1C(=O)[C@@]2(c3cc(C#CCC(C(=O)OC)C(=O)OC)ccc31)[C@H](C(N)=O)[C@H]1C(=O)O[C@H](c3ccccc3)[C@H](c3ccccc3)N1[C@@H]2c1ccc(O)cc1
[out] 0.938

[in] Need composite z-score of CN(C)C(=O)[C@@]1(Cc2ccccc2CN=[N+]=[N-])COC(c2ccc(OCCCO)cc2)=N1 , thanks.
[out] -1.19

[in] Can you share its composite z-score? I mean this molecule: C[N+](C)(C)CCCC[C@@H]1NC(=O)[C@@H]2C[C@H](C(=O)NCc3ccc(F)cc3)[C@H](c3ccc(O)cc3)N2C1=O
[out] 0.549
